Target: UniProt Q9GZT4
Sequence (Q9GZT4 whole entry): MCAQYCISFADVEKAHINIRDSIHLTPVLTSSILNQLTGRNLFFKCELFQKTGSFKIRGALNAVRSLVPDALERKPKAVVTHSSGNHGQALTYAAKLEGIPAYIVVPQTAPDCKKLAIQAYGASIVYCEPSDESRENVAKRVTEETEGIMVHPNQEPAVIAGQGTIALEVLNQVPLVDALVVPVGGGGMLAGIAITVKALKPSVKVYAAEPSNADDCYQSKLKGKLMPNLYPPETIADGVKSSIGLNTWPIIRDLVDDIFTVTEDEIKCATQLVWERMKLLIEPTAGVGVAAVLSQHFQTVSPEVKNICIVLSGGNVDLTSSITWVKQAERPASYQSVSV
Assay: Inhibition of recombinant human SRR expressed in Escherichia coli assessed as reduction in conversion of L-serine to D-serine at 0.1 mM incubated for => 8 hrs in presence of PLP and recombinant D-serine dehydratase 1 by spectrophotometry relative to control
reportedEndpoint: inhibition (%)

So what does the record say about inhibition for `Cc1ccc(/C=C/S(=O)(=O)NCC(=O)Nc2ccc(OCc3ccccc3)cc2)cc1` ?
63

So what does the record say about inhibition for `Cc1ccc(S(=O)(=O)NCC(=O)NCc2ccc(Br)cc2)cc1` ?
75

So what does the record say about inhibition for `O=C(CNS(=O)(=O)c1ccc(Cl)cc1)Nc1ccccc1Br` ?
60
